- assay_target: His-Tau40P301L Tau (UniProt P10636-8 1-441)
- Sequence (P10636 other isoform, or with tags, fused parts or gaps limits assumed): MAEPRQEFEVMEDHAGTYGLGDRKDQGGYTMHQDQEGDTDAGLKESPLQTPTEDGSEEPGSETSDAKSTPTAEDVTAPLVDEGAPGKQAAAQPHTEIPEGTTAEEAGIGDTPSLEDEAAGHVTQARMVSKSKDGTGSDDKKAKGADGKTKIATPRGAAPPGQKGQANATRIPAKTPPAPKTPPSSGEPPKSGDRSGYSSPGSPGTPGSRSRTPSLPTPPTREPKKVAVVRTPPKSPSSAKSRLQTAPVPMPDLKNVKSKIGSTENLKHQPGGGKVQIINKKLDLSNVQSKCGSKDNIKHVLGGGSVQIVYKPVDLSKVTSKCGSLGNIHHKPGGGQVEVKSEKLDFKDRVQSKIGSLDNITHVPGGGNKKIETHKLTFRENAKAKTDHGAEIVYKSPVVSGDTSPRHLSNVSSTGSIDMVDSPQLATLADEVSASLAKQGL
- protocol_text: cell-based or functional assay
Square brackets hold non-standard residues; d marks the D form. Ends that are not written are not given here. NMeR = CN[C@@H](CCCNC(=N)N)C(=O)O; hArg = N=C(N)NCCCC[C@H](N)C(=O)O
Catalogue of IC50 (µM), Tau40 assay (ThT) readings, one per entry.
quantity_measured: IC50 (µM), Tau40 assay (ThT)

- binder: "RIRIWVW"
  quantity_measured: "IC50 (µM), Tau40 assay (ThT)"
  observed_value: 7.07
- binder: "RWWIRIRYW"
  quantity_measured: "IC50 (µM), Tau40 assay (ThT)"
  observed_value: 2.54
- binder: "W[hArg]I[hArg]I[hArg]W [W(hR)I(hR)I(hR)W]"
  quantity_measured: "IC50 (µM), Tau40 assay (ThT)"
  observed_value: 6.13
- binder: "RRIWIRYW"
  quantity_measured: "IC50 (µM), Tau40 assay (ThT)"
  observed_value: 1.96
- binder: "ARIRIRW"
  quantity_measured: "IC50 (µM), Tau40 assay (ThT)"
  observed_value: 4.19
- binder: "RIRLWYW"
  quantity_measured: "IC50 (µM), Tau40 assay (ThT)"
  observed_value: 8.01
- binder: "WRIWIRYL"
  quantity_measured: "IC50 (µM), Tau40 assay (ThT)"
  observed_value: 4.09
- binder: "WRIFIRW"
  quantity_measured: "IC50 (µM), Tau40 assay (ThT)"
  observed_value: 2.01
- binder: "RIRIFIW"
  quantity_measured: "IC50 (µM), Tau40 assay (ThT)"
  observed_value: 3.94
- binder: "IWIRYW"
  quantity_measured: "IC50 (µM), Tau40 assay (ThT)"
  observed_value: 4.05
- binder: "ERIRIRW"
  quantity_measured: "IC50 (µM), Tau40 assay (ThT)"
  observed_value: 12.2
- binder: "RYRIWIW"
  quantity_measured: "IC50 (µM), Tau40 assay (ThT)"
  observed_value: 1.61
- binder: "WRI[NMeR]IRW [WRI(NMe)RIRW]"
  quantity_measured: "IC50 (µM), Tau40 assay (ThT)"
  observed_value: 0.57
- binder: "WKLKLRWW"
  quantity_measured: "IC50 (µM), Tau40 assay (ThT)"
  observed_value: 2.06
- binder: "WAIRIRW"
  quantity_measured: "IC50 (µM), Tau40 assay (ThT)"
  observed_value: 1.72
- binder: "WRIEIRW"
  quantity_measured: "IC50 (µM), Tau40 assay (ThT)"
  observed_value: 4.84
- binder: "LRIWIRYL"
  quantity_measured: "IC50 (µM), Tau40 assay (ThT)"
  observed_value: 2.66
- binder: "HRIRIRW"
  quantity_measured: "IC50 (µM), Tau40 assay (ThT)"
  observed_value: 3.28
- binder: "WKVWVRYW"
  quantity_measured: "IC50 (µM), Tau40 assay (ThT)"
  observed_value: 2.09
- binder: "RIRLWIW"
  quantity_measured: "IC50 (µM), Tau40 assay (ThT)"
  observed_value: 7.07
- binder: "WRIRARW"
  quantity_measured: "IC50 (µM), Tau40 assay (ThT)"
  observed_value: 8.01

Source listed as patent US20230137562A1.
